assay: physchem; conditions: buffer, t1/2 at 37° C.
Where a name gives a salt, the structure may show the parent alone.
Reported Endpoint: half-life

INSERT INTO measurements (molecule, result) VALUES
  ('N#C[C@@H]1C[C@H](F)CN1C(=O)[C@@H](N)C(c1ccc(F)cc1)c1ccc(F)cc1 [Example 2, hydrochloride]', '11.1 days');

====

assay: Stability studies in Phosphate Buffered Saline by HPLC (cyclization/degradation half-life); settings: Phosphate Buffered Saline, t1/2 at 37° C. (calc.), PBS, calculated for 37° C. from value measured at 23° C.
Reported Endpoint: half-life (h)

INSERT INTO results (chem_smiles, reported_endpoint, quantity_unit, result_number) VALUES
  ('CC[C@H](C)[C@H](N)C(=O)N1C[C@@H](F)C[C@H]1C#N', 'half-life', 'h', 23);
